Cited source for all entries: patent US5985894A

Test: Passive avoidance test (scopolamine amnesia)
Assay type: in vivo, Male mice (CD1 Charles River)
Settings: dose 100 μg/kg, s.c.; 24 hours after treatment
Some molecules, each annotated with its measured PERCENTAGE OF INCREASE IN THE LATENCY TIME RELATIVE TO THE CONTROLS.
Metric: PERCENTAGE OF INCREASE IN THE LATENCY TIME RELATIVE TO THE CONTROLS (%)

Structure smiles: CCCCc1cn(Cc2ccc(-c3ccccc3C(=O)O)cc2)c2c(c1=O)CCCC2
Reported result: 66

Structure smiles: CCCCc1cn(Cc2ccc(-c3ccccc3C(=O)O)cc2)c2ccc(C)cc2c1=O
Reported result: 129

Structure smiles: CCCCc1cn(Cc2ccccc2CC(=O)O)c2ccccc2c1=O
Reported result: 98

Structure smiles: CCCCc1cn(Cc2ccc(-c3ccccc3C(=O)O)cc2)c2c(C(=O)O)cccc2c1=O
Reported result: 91

Structure smiles: CCCCc1cn(Cc2ccc(-c3ccccc3C(=O)O)cc2)c2cc(CC(=O)O)ccc2c1=O
Reported result: 149

Structure smiles: CCCCc1cn(Cc2ccc(-c3ccccc3C(=O)O)cc2)c2cc(CCC(=O)O)ccc2c1=O
Reported result: 131

* * *

Test: Passive avoidance test (scopolamine amnesia)
Type: in vivo, Male mice (CD1 Charles River)
Conditions: dose 25 μg/kg, s.c.; 24 hours after treatment
Some compounds, each annotated with its measured PERCENTAGE OF INCREASE IN THE LATENCY TIME RELATIVE TO THE CONTROLS.
Metric: PERCENTAGE OF INCREASE IN THE LATENCY TIME RELATIVE TO THE CONTROLS (%)

Structure smiles: CCCCc1cn(Cc2ccc(-c3ccccc3C(=O)O)cc2)c2c(c1=O)CCCC2
Reported result: 26
--
Structure smiles: CCCCc1cn(Cc2ccc(-c3ccccc3C(=O)O)cc2)c2cc(CCC(=O)O)ccc2c1=O
Reported result: 132
--
Structure smiles: CCCCc1cn(Cc2ccc(-c3ccccc3C(=O)O)cc2)c2ccc(C)cc2c1=O
Reported result: 110
--
Structure smiles: CCCCc1cn(Cc2ccc(-c3ccccc3C(=O)O)cc2)c2c(C(=O)O)cccc2c1=O
Reported result: 65
--
Structure smiles: CCCCc1cn(Cc2ccc(-c3ccccc3C(=O)O)cc2)c2cc(CC(=O)O)ccc2c1=O
Reported result: 225
--
Structure smiles: CCCCc1cn(Cc2ccccc2CC(=O)O)c2ccccc2c1=O
Reported result: 49

* * *

Some molecules, each annotated with its measured log10 IC50.
Biological target: Angiotensin II Receptor (Rattus norvegicus, UniProt P25095)
Sequence (P25095 1-359): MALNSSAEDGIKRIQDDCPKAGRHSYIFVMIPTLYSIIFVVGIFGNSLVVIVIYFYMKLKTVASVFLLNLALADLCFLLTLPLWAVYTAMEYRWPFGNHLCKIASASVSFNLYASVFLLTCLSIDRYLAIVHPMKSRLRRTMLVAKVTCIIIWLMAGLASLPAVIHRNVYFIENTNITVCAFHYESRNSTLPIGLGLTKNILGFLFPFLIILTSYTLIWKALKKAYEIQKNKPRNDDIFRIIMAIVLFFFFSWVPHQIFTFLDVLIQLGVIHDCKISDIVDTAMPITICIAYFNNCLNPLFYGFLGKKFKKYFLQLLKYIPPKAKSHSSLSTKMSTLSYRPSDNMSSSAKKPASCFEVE
Metric: log10 IC50 (log10 of the value in nM)

Structure smiles: CCCCc1cn(Cc2ccc(-c3ccccc3-c3nn[nH]n3)cc2)c2cc(C(=O)N3CCCC3)ccc2c1=O
Reported result: 0.94
//
Structure smiles: CCCCc1cn(Cc2ccc(-c3ccccc3C(=O)O)cc2)c2c(Br)cccc2c1=O
Reported result: 1.87
//
Structure smiles: CCCCc1cn(Cc2ccc(-c3ccccc3C(=O)O)cc2)c2ccccc2c1=O
Reported result: 2.26
//
Structure smiles: CCCCc1cn(Cc2ccc(-c3ccccc3C(=O)O)cc2)c2c(C(=O)O)cccc2c1=O
Reported result: 1.73
//
Structure smiles: CCCCc1cn(Cc2ccc(-c3ccccc3C(=O)O)cc2)c2ccccc2c1=S
Reported result: 2.60
//
Structure smiles: CCCCc1cn(Cc2ccc(-c3ccccc3C(=O)O)cc2)c2cc(C(=O)O)ccc2c1=O
Reported result: 1.96
//
Structure smiles: CCCCc1cn(Cc2ccc(-c3ccccc3C(=O)O)cc2)c2c(c1=O)CCCC2
Reported result: 1.95
